Target: T1, human GLP-1R (human), P43220
T1 chain: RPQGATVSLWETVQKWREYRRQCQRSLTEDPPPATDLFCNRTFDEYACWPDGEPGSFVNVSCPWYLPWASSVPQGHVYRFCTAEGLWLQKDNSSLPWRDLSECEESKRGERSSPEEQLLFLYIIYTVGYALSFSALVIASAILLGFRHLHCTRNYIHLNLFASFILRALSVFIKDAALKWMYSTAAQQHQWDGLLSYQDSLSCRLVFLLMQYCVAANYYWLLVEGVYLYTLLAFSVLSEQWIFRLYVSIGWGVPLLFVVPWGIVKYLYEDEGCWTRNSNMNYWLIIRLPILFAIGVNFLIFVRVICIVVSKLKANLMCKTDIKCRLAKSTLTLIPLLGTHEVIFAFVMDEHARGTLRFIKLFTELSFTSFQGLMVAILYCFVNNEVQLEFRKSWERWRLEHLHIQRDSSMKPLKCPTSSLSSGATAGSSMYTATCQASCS
Non-standard residues stand in square brackets, D forms with d. Groups on a side chain read outwards from the residue. Primed or numbered codes have the meaning given here. No end group written: not given here. *: point of attachment. αMeF = C[C@](N)(Cc1ccccc1)C(=O)O; Lauroyl = CCCCCCCCCCCC(=O)*; Aib = CC(C)(N)C(=O)O
Endpoint: Agonist activity (EC50, M)
Report the figure in M without appending any unit label.

| Binder | Agonist activity (EC50, M) |
| --- | --- |
| Y[Aib]EGTFISDYSK([PEG(2)-Lauroyl])ALDRIAQQD[αMeF]VNWLLAQRPSSGAPPPSR (ends and bridges not checked) [Compound 195] | 1e-07 |

For the next question, use this binder.
Value lookup for Agonist activity (EC50, M); key = Y[Aib]EGTFISDYSK([PEG(2)-Lauroyl])ALDRIAQQDFVNWLLAQRPSSGAPPPS (ends and bridges not checked) [Compound 191]
5e-08
